assay: Metabolic stability evaluation, human liver microsome; assay type: in vitro ADME; settings: liver microsomes, pH 7.4; human liver microsome 0.5 mg/mL, compound 1 μM, NADPH, 37° C.; read-out: HLM T1/2
READOUT KIND: half-life at 1 μM (h)

Here is how some compounds turned out for half-life at 1 μM.
COMPOUND: [2H]C(C)(O)c1cc(C(=O)N[C@@H](C)C([2H])([2H])n2ccc(-c3ccc(C#N)c(Cl)c3)n2)n[nH]1 (stereo partly drawn)
half-life at 1 μM (h): 5.36
//
COMPOUND: [2H][C@](C)(Cn1ccc(-c2ccc(C#N)c(Cl)c2)n1)NC(=O)c1cc(C(C)O)[nH]n1 (stereo partly drawn)
half-life at 1 μM (h): 3.17
//
COMPOUND: [2H]C([2H])([C@H](C)NC(=O)c1cc(C([2H])(O)C([2H])([2H])[2H])[nH]n1)n1ccc(-c2ccc(C#N)c(Cl)c2)n1 (stereo partly drawn)
half-life at 1 μM (h): 3.36
//
COMPOUND: [2H]C([2H])([2H])C([2H])(O)c1cc(C(=O)N[C@@H](C)Cn2ccc(-c3ccc(C#N)c(Cl)c3)n2)n[nH]1 (stereo partly drawn)
half-life at 1 μM (h): 5.83
//
COMPOUND: [2H]C(C)(O)c1cc(C(=O)N[C@@H](C)Cn2ccc(-c3ccc(C#N)c(Cl)c3)n2)n[nH]1 (stereo partly drawn)
half-life at 1 μM (h): 3.7

I. [2H]C([2H])([C@H](C)NC(=O)c1cc(C(C)O)[nH]n1)n1ccc(-c2ccc(C#N)c(Cl)c2)n1 (stereo partly drawn)
II. [2H]C(C)(O)c1cc(C(=O)N[C@@H](C([2H])([2H])[2H])C([2H])([2H])n2ccc(-c3ccc(C#N)c(Cl)c3)n2)n[nH]1 (stereo partly drawn)
Query string: Please compare: I and II . Report which one has the smaller half-life at 1 μM value. Selection: enter the item's label.
Result string: I

---

Assay: Metabolic stability evaluation, human liver microsome
Assay type: in vitro ADME
Details: liver microsomes, pH 7.4; human liver microsome 0.5 mg/mL, compound 1 μM, NADPH, 37° C.; read-out: HLM CL
Experimental: (4) Metabolic Stability Evaluation Microsome experiment: human liver microsome: 0.5 mg/mL, Xenotech; rat liver microsome: 0.5 mg/mL, Xenotech; coenzyme (NADPH/NADH): 1 mM, Sigma Life Science; magnesium chloride: 5 mM, 100 mM phosphate buffer (pH 7.4). […] Data analysis: the peak areas of the corresponding compound and internal standard were detected through the LC-MS/MS system, and the ratio of the peak area of the compound to the internal standard was calculated. […]
READOUT KIND: microsomal CLint at 1 μM (µL/min/mg)

COMPOUND: [2H]C([2H])([C@H](C)NC(=O)c1cc(C(C)O)[nH]n1)n1ccc(-c2ccc(C#N)c(Cl)c2)n1 (stereo partly drawn) [Example 4]
microsomal CLint at 1 μM / µL/min/mg: 8.5

COMPOUND: [2H]C([2H])([C@H](C)NC(=O)c1cc(C([2H])(O)C([2H])([2H])[2H])[nH]n1)n1ccc(-c2ccc(C#N)c(Cl)c2)n1 (stereo partly drawn) [Example 7]
microsomal CLint at 1 μM / µL/min/mg: 6.9

COMPOUND: CC(O)c1cc(C(=O)N[C@@H](C)Cn2ccc(-c3ccc(C#N)c(Cl)c3)n2)[nH]n1 (stereo partly drawn) [Darolutamide, reference compound]
microsomal CLint at 1 μM / µL/min/mg: 8.5
